- subject of test: Receptor-type tyrosine-protein kinase FLT3 (Homo sapiens, UniProt P36888, D835Y)
- experiment description: Inhibition of FLT3 D835Y mutant
metric: IC50 (nM)
Expressed in nM, but write only the number.

Given the compound "Nc1ncc(-c2cnn(C3CCNCC3)c2)cc1-c1nc2ccc(O)cc2o1" , what is its reported IC50?
0.3

---

Assign pIC50 to each entry below.
- subject of test: Hepatocyte growth factor receptor (Homo sapiens, UniProt P08581)
- Sequence (P08581 whole entry): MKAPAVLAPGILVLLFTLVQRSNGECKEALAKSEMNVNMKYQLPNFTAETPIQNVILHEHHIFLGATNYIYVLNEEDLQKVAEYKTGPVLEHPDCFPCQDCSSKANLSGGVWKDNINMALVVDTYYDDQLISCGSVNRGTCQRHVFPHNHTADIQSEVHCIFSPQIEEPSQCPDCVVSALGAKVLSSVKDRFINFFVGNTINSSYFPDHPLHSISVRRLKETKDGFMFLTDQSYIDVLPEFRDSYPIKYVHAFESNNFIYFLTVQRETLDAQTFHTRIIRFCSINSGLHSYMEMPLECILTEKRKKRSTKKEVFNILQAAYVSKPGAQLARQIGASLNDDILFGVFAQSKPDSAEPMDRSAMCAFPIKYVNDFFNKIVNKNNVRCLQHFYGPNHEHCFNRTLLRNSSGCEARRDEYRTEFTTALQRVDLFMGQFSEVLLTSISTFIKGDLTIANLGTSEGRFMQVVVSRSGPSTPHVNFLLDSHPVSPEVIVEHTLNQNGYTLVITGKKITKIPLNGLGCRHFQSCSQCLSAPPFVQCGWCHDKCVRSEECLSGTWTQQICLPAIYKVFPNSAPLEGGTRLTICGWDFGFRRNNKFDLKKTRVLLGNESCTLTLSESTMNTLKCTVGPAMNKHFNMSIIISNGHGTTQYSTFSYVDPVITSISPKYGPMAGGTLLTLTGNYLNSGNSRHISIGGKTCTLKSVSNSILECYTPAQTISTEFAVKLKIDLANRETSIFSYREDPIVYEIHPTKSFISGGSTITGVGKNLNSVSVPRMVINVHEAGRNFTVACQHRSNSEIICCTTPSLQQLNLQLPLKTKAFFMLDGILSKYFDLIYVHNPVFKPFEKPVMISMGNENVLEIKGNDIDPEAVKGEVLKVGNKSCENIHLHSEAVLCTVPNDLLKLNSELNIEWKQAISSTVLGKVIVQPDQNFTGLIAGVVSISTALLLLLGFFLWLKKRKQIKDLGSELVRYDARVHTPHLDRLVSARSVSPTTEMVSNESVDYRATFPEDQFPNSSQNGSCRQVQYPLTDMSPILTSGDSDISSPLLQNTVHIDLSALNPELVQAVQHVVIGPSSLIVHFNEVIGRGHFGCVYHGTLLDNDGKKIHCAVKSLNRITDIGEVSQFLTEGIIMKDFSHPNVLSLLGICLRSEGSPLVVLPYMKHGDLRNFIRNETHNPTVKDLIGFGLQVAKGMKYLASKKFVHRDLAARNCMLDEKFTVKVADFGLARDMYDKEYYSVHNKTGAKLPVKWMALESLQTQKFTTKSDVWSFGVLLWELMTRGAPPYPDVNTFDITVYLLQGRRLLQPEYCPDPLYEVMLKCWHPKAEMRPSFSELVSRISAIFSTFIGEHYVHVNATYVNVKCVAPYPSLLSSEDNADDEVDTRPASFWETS
- experiment description: Inhibition of recombinant c-Met by time resolved-fluorescence resonance energy transfer analysis
Quick note: pIC50 values are minus log10 of concentrations in mol/L.

Given the compound "Cc1cc2nc(-c3cc(-c4cnn(C5CCNCC5)c4)cnc3N)oc2cc1O" , what is its reported pIC50?
6.74

Given the compound "Nc1ncc(-c2cnn(C3CCNCC3)c2)cc1-c1nc2ccc(O)c(-c3cccnc3)c2o1" , what is its reported pIC50?
8.40

Given the compound "Nc1ncc(-c2cnn(C3CCNCC3)c2)cc1-c1nc2cc(O)ccc2o1" , what is its reported pIC50?
7.66

Given the compound "Nc1ncc(-c2cnn(C3CCNCC3)c2)cc1-c1nc2ccc(NC(=O)Nc3ccccc3)cc2o1" , what is its reported pIC50?
6.89

Given the compound "CC(=O)c1ccc2nc(-c3cc(-c4cnn(C5CCNCC5)c4)cnc3N)oc2c1" , what is its reported pIC50?
6.10

Given the compound "Nc1ncc(-c2cnn(C3CCNCC3)c2)cc1-c1nc2ccc(-c3cc[nH]n3)cc2o1" , what is its reported pIC50?
6.68

Given the compound "Nc1ccc2nc(-c3cc(-c4cnn(C5CCNCC5)c4)cnc3N)oc2c1" , what is its reported pIC50?
7.85

Given the compound "CC(=O)N1CCC(n2cc(-c3cnc(N)c(-c4nc5cc(O)c(C)cc5o4)c3)cn2)CC1" , what is its reported pIC50?
7.29

Given the compound "Nc1ncc(-c2cnn(C3CCNCC3)c2)cc1-c1nc2ccc(O)cc2o1" , what is its reported pIC50?
7.72

Given the compound "Nc1ncc(-c2cnn(C3CCNCC3)c2)cc1-c1nc2ccc(-c3cccnc3)cc2o1" , what is its reported pIC50?
7.55

Given the compound "Cc1cc2oc(-c3cc(-c4cnn(C5CCNCC5)c4)cnc3N)nc2c(C)c1O" , what is its reported pIC50?
8.52

Given the compound "COc1ccc(-c2cccc3nc(-c4cc(-c5cnn(C6CCNCC6)c5)cnc4N)oc23)cc1" , what is its reported pIC50?
7.11

Given the compound "CC(=O)Nc1ccc2oc(-c3cc(-c4cnn(C5CCNCC5)c4)cnc3N)nc2c1" , what is its reported pIC50?
6.27

Given the compound "Nc1ncc(-c2cnn(CCO)c2)cc1-c1nc2cccc(-c3ccccn3)c2o1" , what is its reported pIC50?
7.28

Given the compound "Nc1ncc(-c2cnn(C3CCNCC3)c2)cc1-c1nc2ccc(O)c(-c3ccccc3)c2o1" , what is its reported pIC50?
7.32

Given the compound "Cn1cc(-c2cnc(N)c(-c3nc4ccc(Cl)cc4o3)c2)cn1" , what is its reported pIC50?
5.77

Given the compound "CCCNc1ccc2nc(-c3cc(-c4cnn(C5CCNCC5)c4)cnc3N)oc2c1" , what is its reported pIC50?
6.82

Given the compound "Nc1ncc(-c2cnn(C3CCNCC3)c2)cc1-c1nc2cc(Cl)ccc2o1" , what is its reported pIC50?
7.28

Given the compound "Cc1c(O)ccc2nc(-c3cc(-c4cnn(C5CCNCC5)c4)cnc3N)oc12" , what is its reported pIC50?
9.70
